Values were extracted from ChEMBL document CHEMBL3988442.

Target under test: Sialic acid-binding Ig-like lectin 9 (Homo sapiens) (UniProt Q9Y336)
Sequence (Q9Y336 whole entry): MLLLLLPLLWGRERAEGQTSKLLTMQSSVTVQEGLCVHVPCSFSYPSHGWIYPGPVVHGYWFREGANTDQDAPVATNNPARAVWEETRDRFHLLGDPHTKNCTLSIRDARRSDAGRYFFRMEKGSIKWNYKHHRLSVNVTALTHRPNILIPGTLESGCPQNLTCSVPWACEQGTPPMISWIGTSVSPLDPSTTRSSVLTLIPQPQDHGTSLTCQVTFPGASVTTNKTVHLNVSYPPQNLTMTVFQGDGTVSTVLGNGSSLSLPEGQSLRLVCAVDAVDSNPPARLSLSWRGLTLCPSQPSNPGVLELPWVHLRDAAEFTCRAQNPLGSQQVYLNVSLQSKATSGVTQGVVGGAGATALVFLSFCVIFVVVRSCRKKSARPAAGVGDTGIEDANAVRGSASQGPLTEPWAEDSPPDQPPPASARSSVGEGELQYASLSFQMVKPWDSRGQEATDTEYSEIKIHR
Experiment notes: Hs-Siglec9 ALPHAscreen SOP 20170721
Design: scale not given: direction of the effect not stated beside the values
Assay conditions: 10 µM
# Percent Effect per record follows
Readout kind: Percent Effect (%)

[
  {
    "Compound": "CCc1ccc(CNC(=O)NC(C)CN2CCOCC2)s1 (stereo unspecified)",
    "Readout kind": "Percent Effect",
    "Unit tag": "%",
    "Reading": -6.5
  },
  {
    "Compound": "Cc1nccn1-c1cc(CNC(=O)C(C)(C)C)ccn1",
    "Readout kind": "Percent Effect",
    "Unit tag": "%",
    "Reading": 6.88
  },
  {
    "Compound": "CS(=O)(=O)Cc1cccc(C(=O)NCC2Cc3ccccc3O2)c1 (stereo unspecified)",
    "Readout kind": "Percent Effect",
    "Unit tag": "%",
    "Reading": 0.841
  },
  {
    "Compound": "O=C(Nc1ccc(CCN2CCC(O)CC2)cc1)C1CCOCC1",
    "Readout kind": "Percent Effect",
    "Unit tag": "%",
    "Reading": 11.5
  },
  {
    "Compound": "CCOCCn1nc(C)cc1C(=O)N1CC[C@](C)(O)[C@H](C)C1",
    "Readout kind": "Percent Effect",
    "Unit tag": "%",
    "Reading": 3.85
  },
  {
    "Compound": "Cc1cc(CN2CCN(CC(O)C(C)(C)C)CC2)no1 (stereo unspecified)",
    "Readout kind": "Percent Effect",
    "Unit tag": "%",
    "Reading": 10.4
  }
]
